# ASSAY_TARGET: Muscarinic acetylcholine receptor M1 (Homo sapiens)
# Sequence (P11229 whole entry): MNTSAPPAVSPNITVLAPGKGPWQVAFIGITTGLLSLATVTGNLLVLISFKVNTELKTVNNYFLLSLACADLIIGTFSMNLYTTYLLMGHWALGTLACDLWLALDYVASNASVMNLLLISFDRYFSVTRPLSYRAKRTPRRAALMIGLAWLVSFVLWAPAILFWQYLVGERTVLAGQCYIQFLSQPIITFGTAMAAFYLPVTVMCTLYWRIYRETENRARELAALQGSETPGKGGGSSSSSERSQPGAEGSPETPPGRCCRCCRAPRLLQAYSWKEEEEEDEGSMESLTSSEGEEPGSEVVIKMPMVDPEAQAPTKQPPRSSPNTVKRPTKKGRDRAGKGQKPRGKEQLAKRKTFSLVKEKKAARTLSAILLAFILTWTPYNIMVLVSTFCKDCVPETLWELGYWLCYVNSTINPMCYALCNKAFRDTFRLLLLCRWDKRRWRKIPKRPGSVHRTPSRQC
PROPERTY_LABEL: Ki (nM)
Express the result in nM but write the number alone.

CCN(CC)CCCOC(=O)N1c2ccccc2Sc2ccccc21; 64

Measured Ki of `O=C(OCCN1CCCC1)N1c2ccccc2Sc2ccccc21` : 2
